Data origin: patent US7183260B2

Biological target: MCH-5 (Homo sapiens)
Sequence (Q14790 217-374 limits assumed, species assumed): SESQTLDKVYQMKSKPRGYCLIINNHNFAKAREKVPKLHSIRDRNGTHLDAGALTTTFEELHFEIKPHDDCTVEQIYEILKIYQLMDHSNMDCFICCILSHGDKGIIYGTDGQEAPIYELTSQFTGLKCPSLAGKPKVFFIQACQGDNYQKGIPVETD
Sequence (Q14790 385-479 limits assumed, species assumed): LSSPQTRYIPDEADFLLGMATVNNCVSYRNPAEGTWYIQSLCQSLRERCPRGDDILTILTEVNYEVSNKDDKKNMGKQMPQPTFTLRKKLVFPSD
Assay: Dissociation constant Ki and irreversible rate constant k3 for irreversible inhibitors (Mch5)
Format: biochemical
Conditions: continuous assay 60 min, reaction initiated by adding enzyme to substrate-inhibitor mixture
Entries and their MCH-5 k3/Ki values follow.

C[C@H](NC(=O)C(=O)Nc1ccccc1F)C(=O)N[C@@H](CC(=O)O)C(=O)COC(=O)c1c(Cl)cccc1Cl [Example 39] | 155,000 moles^−1 seconds^−1
COc1ccccc1NC(=O)C(=O)N[C@H](C(=O)N[C@@H](CC(=O)O)C(=O)COc1c(F)c(F)cc(F)c1F)C(C)C [Example 95] | 2,680,000 moles^−1 seconds^−1
CC(C)[C@H](NC(=O)C(=O)Nc1cccc2ccccc12)C(=O)N[C@@H](CC(=O)O)C(=O)COc1c(-c2ccccc2)oc2ccccc2c1=O [Example 9] | 0 mol⁻¹ s⁻¹
C[C@H](NC(=O)C(=O)Nc1ccc(F)cc1)C(=O)N[C@@H](CC(=O)O)C(=O)COC(=O)c1c(Cl)cccc1Cl [Example 44] | 18,700 moles^−1 seconds^−1
CC(C)[C@H](NC(=O)C(=O)Nc1ccccc1-c1ccccc1)C(=O)N[C@@H](CC(=O)O)C(=O)COc1c(F)c(F)cc(F)c1F [Example 83] | 65,300 moles^−1 seconds^−1

Now take the following compound into account.
Ask | Fill in reported MCH-5 k3/Ki for this entry: C[C@H](NC(=O)C(=O)Nc1cccc2c1CCCC2)C(=O)N[C@@H](CC(=O)O)C(=O)COc1c(F)c(F)cc(F)c1F [Example 50]
Reply | 46,200 moles^−1 seconds^−1
